Biological target: T1, EsCas13d, nuclease-dead (Eubacterium siraeum, UniProt B0MS50, R295A;H300A;R849A;H854A)
T1 sequence: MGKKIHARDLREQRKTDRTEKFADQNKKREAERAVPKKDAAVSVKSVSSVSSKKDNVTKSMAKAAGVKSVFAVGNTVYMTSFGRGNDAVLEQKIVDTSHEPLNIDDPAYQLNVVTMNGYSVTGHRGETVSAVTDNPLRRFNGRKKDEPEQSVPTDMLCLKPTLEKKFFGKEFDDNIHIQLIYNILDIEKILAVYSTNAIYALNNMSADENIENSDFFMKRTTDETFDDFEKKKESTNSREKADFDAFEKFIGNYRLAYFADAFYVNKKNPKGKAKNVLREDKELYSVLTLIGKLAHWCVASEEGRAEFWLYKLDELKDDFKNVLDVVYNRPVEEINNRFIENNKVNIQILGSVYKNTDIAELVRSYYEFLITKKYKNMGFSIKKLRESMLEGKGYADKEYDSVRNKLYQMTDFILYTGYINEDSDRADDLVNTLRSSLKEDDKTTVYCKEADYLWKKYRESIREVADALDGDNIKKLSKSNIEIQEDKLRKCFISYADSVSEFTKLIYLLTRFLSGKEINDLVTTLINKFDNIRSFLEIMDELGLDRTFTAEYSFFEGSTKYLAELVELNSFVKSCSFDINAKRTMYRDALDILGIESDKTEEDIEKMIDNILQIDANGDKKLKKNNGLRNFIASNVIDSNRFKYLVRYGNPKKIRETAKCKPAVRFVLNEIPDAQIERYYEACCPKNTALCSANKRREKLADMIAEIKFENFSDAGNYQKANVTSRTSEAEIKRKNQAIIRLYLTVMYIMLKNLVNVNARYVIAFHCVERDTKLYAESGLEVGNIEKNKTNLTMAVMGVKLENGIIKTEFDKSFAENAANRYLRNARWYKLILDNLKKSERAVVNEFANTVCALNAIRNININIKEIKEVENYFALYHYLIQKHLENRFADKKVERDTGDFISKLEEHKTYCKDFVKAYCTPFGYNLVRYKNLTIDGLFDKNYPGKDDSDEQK
Experiment: crRNA (strand 1, pre-loaded); Mg2+; 40 mM Tris-HCl pH 7.5, 150 mM NaCl, 6 mM MgCl2, 1 mM DTT, 0.1% Tween-20, 0.2 mg/ml BSA; 25 C; 10 min per concentration, then washed
Conditions: tags: His6-TwinStrep-SUMO cleaved; N-terminal SNAP kept (SNAP-Surface 488); label: 3' end held by stalled T7 RNA polymerase
What Kd was measured for each of the following?
Numbers only, in nM.

Please review the following examples before continuing.
Exercise: # query: Kd of entry target 1 U8C,A16G (mixed) RNA 1: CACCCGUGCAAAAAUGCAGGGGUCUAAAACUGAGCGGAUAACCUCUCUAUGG RNA 2: GGGAAUGGAUCCACAUCUACGAAUUCGUACCAUAGGGAGGUUACCCGCUCACCGAGAUCGGAAGAGCACACGU
Solution: 54

Exercise: # query: Kd of entry target 1 insU 3' of 14,insG 3' of 8 (mixed) RNA 1: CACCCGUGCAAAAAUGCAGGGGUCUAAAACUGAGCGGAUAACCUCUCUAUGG RNA 2: GGGAAUGGAUCCACAUCUACGAAUUCGUACCAUAGAGAUGGUUAUGCCGCUCACCGAGAUCGGAAGAGCACACGU
Solution: 38.1

Exercise: # query: Kd of entry target 3 insU 3' of 13,insU 3' of 5 (mixed) RNA 1: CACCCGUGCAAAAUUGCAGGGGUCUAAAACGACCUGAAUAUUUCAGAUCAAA RNA 2: GGGAAUGGAUCCACAUCUACGAAUUCGUUUUUGAUCUGAUAAUAUUCAUGGUCUGCAGAUCGGAAGAGCACACGU
Solution: 106

Now for a further binder.
Exercise: # query: Kd of entry target 1 insU 3' of 14,insA 3' of 13 (mixed) RNA 1: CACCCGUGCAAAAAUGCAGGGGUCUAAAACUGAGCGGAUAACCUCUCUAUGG RNA 2: GGGAAUGGAUCCACAUCUACGAAUUCGUACCAUAGAGAUGAGUUAUCCGCUCACCGAGAUCGGAAGAGCACACGU
Solution: 9.2
